targetUnderTest: NHE1 (Homo sapiens)
Construct: HLF cells (Human hepatoma cell line) were used as cells for the test; endogenous in cells
Sequence (P19634 whole entry): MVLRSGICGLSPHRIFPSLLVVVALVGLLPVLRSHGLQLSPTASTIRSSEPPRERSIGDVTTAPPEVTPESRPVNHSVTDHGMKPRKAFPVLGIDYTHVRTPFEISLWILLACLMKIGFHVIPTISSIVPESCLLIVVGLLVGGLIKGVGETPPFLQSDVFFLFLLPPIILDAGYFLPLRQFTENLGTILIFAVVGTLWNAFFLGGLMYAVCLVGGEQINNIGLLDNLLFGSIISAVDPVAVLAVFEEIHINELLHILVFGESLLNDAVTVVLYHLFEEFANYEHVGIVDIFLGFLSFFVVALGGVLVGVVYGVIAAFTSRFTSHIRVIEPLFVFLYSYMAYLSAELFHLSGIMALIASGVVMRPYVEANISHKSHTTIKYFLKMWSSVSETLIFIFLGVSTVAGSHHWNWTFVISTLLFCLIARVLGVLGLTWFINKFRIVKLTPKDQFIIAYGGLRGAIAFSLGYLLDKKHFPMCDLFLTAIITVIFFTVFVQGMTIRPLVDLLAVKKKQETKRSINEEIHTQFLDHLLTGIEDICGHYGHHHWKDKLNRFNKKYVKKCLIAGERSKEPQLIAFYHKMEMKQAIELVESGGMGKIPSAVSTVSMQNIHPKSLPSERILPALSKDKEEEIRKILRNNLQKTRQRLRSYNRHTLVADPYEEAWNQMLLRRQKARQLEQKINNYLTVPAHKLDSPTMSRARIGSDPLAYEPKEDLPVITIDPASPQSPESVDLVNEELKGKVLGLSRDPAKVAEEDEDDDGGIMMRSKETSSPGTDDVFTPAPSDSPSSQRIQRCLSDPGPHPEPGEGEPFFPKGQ
procedureDetails: Measurements of NHE1 inhibitory activities (HLF cells, BCECF pH recovery)
conditionNotes: HLF cells (human hepatoma cell line), measured after 10 minutes; read-out: hNHE1 IC50
testReadout: IC50 (nM)
Numbers only, in nM.

Exercise: Form field: IC50 recorded for `C/C(=C\c1ccccc1-c1ccc(C(=N)N)c(F)c1)C(=O)NC(=N)N` with NHE1 (Homo sapiens) (enter value)
Key: 200

Exercise: Form field: IC50 recorded for `C/C(=C\c1ccccc1-c1cc[nH]c1)C(=O)NC(=N)N` with NHE1 (Homo sapiens) (enter value)
Key: 2100

Exercise: Form field: IC50 recorded for `C/C(=C\c1ccc(Oc2ccc(S(N)(=O)=O)cc2)cc1-c1ccc(O)cc1)C(=O)NC(=N)N` with NHE1 (Homo sapiens) (enter value)
Key: 1500

Quick one: give me IC50 for each item below, same order please.
1. C/C(=C\c1c(F)cccc1-c1ccc(O)cc1)C(=O)NC(=N)N
2. C/C(=C\c1ccc(C)cc1-c1ccc(F)c(O)c1)C(=O)NC(=N)N
3. C/C(=C\c1ccccc1-c1cscc1C)C(=O)NC(=N)N
4. C/C(=C\c1ccc(-c2ccc(O)cc2)cc1-c1ccc(O)cc1)C(=O)NC(=N)N

Key:
1: 6600; 2: 9900; 3: 2200; 4: 1100
